Each recorded value in this set is attributed to the supplement of paper PMC3545927.

target: furin, P09958; experiment: furin cleavage Z-score vs untreated control; higher = more cleavage, active = 3.5 or more, inactive = 1 or less, 8 variable residues between constant flanks; settings: 15 min;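 further: purified furin at 1:10 enzyme:substrate in 50 mM HEPES pH 7.5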
Sequence (P09958 whole entry): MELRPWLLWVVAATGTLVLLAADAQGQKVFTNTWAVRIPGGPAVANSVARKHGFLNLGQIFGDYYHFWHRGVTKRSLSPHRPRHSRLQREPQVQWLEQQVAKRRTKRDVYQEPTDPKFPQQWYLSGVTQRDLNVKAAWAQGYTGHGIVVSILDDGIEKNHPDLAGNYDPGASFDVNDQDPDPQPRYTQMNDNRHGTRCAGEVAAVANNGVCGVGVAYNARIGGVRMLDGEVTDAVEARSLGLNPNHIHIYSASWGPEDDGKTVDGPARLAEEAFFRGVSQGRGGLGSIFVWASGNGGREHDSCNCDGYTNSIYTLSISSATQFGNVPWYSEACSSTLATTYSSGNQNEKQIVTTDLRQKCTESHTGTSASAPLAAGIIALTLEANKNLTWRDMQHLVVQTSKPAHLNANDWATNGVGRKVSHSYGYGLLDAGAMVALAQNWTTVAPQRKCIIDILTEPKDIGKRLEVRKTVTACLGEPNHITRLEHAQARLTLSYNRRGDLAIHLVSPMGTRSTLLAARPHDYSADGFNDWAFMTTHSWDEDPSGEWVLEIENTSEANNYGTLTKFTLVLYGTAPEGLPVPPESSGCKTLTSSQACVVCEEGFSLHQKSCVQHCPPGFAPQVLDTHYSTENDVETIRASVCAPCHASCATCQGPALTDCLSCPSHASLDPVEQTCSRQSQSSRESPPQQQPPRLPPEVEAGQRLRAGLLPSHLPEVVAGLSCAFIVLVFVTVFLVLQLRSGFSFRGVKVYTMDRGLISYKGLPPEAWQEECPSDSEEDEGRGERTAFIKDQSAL
The other results are listed elsewhere or left out. The true hit rate is not given.
QUANTITY KIND: furin cleavage Z-score

Please review the following examples before continuing.
{"BIOPOLYMER SEQUENCE": "CARPRRELSLAGNASASA [FS-2501]", "furin cleavage Z-score": "9.15 (active)"}
{"BIOPOLYMER SEQUENCE": "CARRARAVHDAGNASASA [FS-2769]", "furin cleavage Z-score": "0.269 (inactive)"}
{"BIOPOLYMER SEQUENCE": "CARRARSSVCAGNASASA [FS-2771]", "furin cleavage Z-score": "0.0716 (inactive)"}

We next turn to a different sequence, shown below.
// fetch furin cleavage Z-score given entry CARPWKSVALAGNASASA [FS-1765]
0.873 (inactive)
